- target-or-test-system: UniProt Q14524
- measurement-description: Late INa screening assay (late sodium current, PatchXpress whole cell patch clamp)
- Type: cell-based
- cond: compound at 10 μM; read-out: Late INa % blk
# label = yes if inhibition at 10 µM >= 20% else no

Solved cases (8 shown):
Form field: inhibition at 10 µM at least 20%? Entry: CCOC(=O)CN1C(C)=C(C(=O)OCc2ccccc2)C(c2cccc3ccccc23)n2nnnc21 (stereo not drawn) [PT-331] yes

Form field: inhibition at 10 µM at least 20%? Entry: COc1cc(Cl)ccc1COC(=O)C1=C(C)Nc2nnnn2C1c1c(C)cccc1C (stereo not drawn) [PT-307] yes

Form field: inhibition at 10 µM at least 20%? Entry: CC1=C(C(=O)OCc2ccccc2)C(c2ccccc2N2CCCCC2)n2nnnc2N1 (stereo not drawn) [PT-342] yes

Form field: inhibition at 10 µM at least 20%? Entry: CCOC(=O)C1=C(C)NC(C)=C(C(=O)OCC)C1c1ccc(OC)cc1OC [PT-429] no

Form field: inhibition at 10 µM at least 20%? Entry: N#CC1=C(N)OC2=C(C(=O)CCC2)C1c1ccc(Br)cc1 (stereo not drawn) [PT-096] no

Form field: inhibition at 10 µM at least 20%? Entry: CC1=C(C(=O)OCc2ccccc2)C(c2cccc3ccccc23)c2cn[nH]c2N1 (stereo not drawn) [PT-367] no

Form field: inhibition at 10 µM at least 20%? Entry: CCOC(=O)C1=C(C)Nc2ccnn2C1c1ccc(OC)cc1C#N (stereo not drawn) [PT-491] no

Form field: inhibition at 10 µM at least 20%? Entry: CC1=C(C(=O)OCc2ccccc2)[C@@H](c2ccccc2-c2ccc(C#N)cc2)n2nnnc2N1 [PT-243] yes

Switching to the query record.
Form field: inhibition at 10 µM at least 20%? Entry: CCOC(=O)C1=C(C)NC(C)=C(C(=O)OCC)C1c1ccccc1-c1cccc(C#N)c1 [PT-435] no

----------
- target-or-test-system: wild-type human cardiac sodium channel, hNav1.5 (Homo sapiens, UniProt Q14524)
- Sequence (Q14524 whole entry): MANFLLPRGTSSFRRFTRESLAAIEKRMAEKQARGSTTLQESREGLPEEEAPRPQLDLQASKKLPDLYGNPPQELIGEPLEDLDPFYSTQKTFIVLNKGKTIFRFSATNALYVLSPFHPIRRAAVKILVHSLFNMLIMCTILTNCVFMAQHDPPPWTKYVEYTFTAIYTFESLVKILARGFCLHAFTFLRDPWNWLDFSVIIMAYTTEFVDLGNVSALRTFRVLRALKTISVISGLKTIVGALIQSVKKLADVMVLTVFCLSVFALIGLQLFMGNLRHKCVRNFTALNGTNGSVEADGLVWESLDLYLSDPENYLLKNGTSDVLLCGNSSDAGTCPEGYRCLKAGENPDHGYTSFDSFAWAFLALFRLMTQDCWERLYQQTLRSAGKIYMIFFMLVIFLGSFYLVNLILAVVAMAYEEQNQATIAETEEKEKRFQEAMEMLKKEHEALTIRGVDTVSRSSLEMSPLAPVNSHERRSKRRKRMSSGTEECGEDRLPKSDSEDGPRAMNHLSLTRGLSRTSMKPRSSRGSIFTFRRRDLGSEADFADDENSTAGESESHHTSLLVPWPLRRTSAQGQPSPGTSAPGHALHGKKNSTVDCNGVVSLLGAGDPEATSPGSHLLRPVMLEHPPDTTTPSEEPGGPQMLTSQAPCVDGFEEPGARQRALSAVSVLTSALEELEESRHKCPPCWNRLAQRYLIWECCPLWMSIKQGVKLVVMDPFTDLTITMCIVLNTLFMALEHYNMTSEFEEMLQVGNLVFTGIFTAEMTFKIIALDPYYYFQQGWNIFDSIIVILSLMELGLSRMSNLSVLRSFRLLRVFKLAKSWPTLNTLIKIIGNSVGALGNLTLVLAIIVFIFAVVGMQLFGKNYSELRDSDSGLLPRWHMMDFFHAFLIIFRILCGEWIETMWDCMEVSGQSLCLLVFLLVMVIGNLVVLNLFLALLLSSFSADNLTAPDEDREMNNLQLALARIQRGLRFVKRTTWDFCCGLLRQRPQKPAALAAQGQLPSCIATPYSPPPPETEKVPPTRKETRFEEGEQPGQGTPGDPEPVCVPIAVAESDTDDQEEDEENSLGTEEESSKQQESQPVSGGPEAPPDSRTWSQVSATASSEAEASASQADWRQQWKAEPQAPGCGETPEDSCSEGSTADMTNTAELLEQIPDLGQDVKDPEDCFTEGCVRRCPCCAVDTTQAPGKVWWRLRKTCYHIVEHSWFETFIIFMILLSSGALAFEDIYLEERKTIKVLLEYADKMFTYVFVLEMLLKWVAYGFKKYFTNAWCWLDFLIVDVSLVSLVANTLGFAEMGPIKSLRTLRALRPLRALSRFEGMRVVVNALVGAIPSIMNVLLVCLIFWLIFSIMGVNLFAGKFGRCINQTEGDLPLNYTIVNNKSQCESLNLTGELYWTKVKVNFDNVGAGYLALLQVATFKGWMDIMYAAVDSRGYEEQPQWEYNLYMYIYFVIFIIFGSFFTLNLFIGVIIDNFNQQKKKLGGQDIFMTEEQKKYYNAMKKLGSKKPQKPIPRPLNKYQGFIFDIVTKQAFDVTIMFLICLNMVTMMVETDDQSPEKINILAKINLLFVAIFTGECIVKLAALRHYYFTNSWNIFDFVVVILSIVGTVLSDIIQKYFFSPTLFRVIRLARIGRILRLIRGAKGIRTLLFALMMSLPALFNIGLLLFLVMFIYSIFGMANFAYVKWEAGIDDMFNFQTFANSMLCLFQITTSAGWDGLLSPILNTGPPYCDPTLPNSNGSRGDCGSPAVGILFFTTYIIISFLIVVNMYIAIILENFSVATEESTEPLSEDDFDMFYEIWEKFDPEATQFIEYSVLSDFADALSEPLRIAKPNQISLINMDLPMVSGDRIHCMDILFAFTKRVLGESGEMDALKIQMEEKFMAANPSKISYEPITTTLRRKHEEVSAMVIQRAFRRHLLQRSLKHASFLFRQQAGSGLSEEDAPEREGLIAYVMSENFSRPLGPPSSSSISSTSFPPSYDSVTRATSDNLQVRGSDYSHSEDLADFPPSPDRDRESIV
- measurement-description: Late INa screening assay (late sodium current, PatchXpress whole cell patch clamp)
- Type: cell-based
- cond: compound at 10 μM; read-out: Late INa % blk
# label = class 1 if inhibition at 10 µM >= 30% else class 0

Solved cases (4 shown):
Form field: inhibition at 10 µM at least 30%? Entry: `CCOC(=O)c1c(C)nc2[nH]ncc2c1-c1ccccc1` class 0

Form field: inhibition at 10 µM at least 30%? Entry: CC1=C(C(=O)OCc2ccccc2)C(c2ccc(C)c3ccccc23)n2nnnc2N1 (centres unmarked) class 0

Form field: inhibition at 10 µM at least 30%? Entry: CC1=C(C(=O)OCc2ccccc2)C(c2nccs2)n2nnnc2N1 (centres unmarked) class 0

Form field: inhibition at 10 µM at least 30%? Entry: CCOC(=O)C1=C(C)Nc2nnnn2C1c1c(C)cccc1C (centres unmarked) class 0

New cases:
Form field: inhibition at 10 µM at least 30%? Entry: CCOC(=O)C1=C(C)Nc2nnnn2C1c1cc2ccccc2o1 (centres unmarked) class 1

----------
- target-or-test-system: wild-type human cardiac sodium channel, hNav1.5 (Homo sapiens)
- measurement-description: Late INa screening assay (late sodium current, PatchXpress whole cell patch clamp)
- Format: cell-based
- cond: compound at 10 μM; read-out: Late INa % blk
Overview of recorded inhibition at 10 µM for various molecules
Quick reminder: number only, in %, skip the unit.

Given the entry COC(=O)C1=C(C)Nc2nnnn2C1c1c(Br)sc2ccc(Cl)cc12 (stereo not drawn) [PT-517] , report its measured inhibition at 10 µM. 43.3

Given the entry CC1=C(C(=O)OCc2ccccc2)C(c2cnc(N3CCN(C)CC3)s2)n2nnnc2N1 (stereo not drawn) [PT-341] , report its measured inhibition at 10 µM. 23.3

Given the entry CC1=C(C(=O)OCC(F)(F)F)C(c2cccc3ccccc23)n2nnnc2N1 (stereo not drawn) [PT-014] , report its measured inhibition at 10 µM. 50.9

New cases:
Given the entry CCOC(=O)C1=C(C)Nc2nnnn2C1c1cccc(Oc2ccc(C(=O)O)cc2)c1 (stereo not drawn) [PT-295] , report its measured inhibition at 10 µM. 7

Given the entry COc1ccc(-c2sc3ccccc3c2C2C(C(=O)OCc3ccccc3)=C(C)Nc3nnnn32)cc1 (stereo not drawn) [PT-379] , report its measured inhibition at 10 µM. 55

Given the entry CCOC(=O)CN1C(C)=C(C(=O)OCC)C(c2cccc3ccccc23)n2nnnc21 (stereo not drawn) [PT-449] , report its measured inhibition at 10 µM. 47.6

Given the entry CCOC(=O)C1=C(C)Nc2nnnn2C1c1c(Br)sc2ccccc12 (stereo not drawn) [PT-489] , report its measured inhibition at 10 µM. 80.7

Given the entry CCOC(=O)[C@@H]1CCCN(c2cc(OC)ccc2C2C(C(=O)OCc3ccccc3)=C(C)Nc3[nH]ncc32)C1 (stereo partly drawn) [PT-327] , report its measured inhibition at 10 µM. 35.3

Given the entry CCOC(=O)C1=C(C)Nc2ccnn2C1c1ccccc1OCCN(C)C (stereo not drawn) [PT-478] , report its measured inhibition at 10 µM. 34.3

Given the entry CC1=C(C(=O)NNC(=O)c2ccccc2)C(c2cccc3ccccc23)n2nnnc2N1 (stereo not drawn) [PT-069] , report its measured inhibition at 10 µM. 11.5

Given the entry CCOC(=O)C1=C(C)NC(C)=C(C(=O)OCC)C1c1csc2ccccc12 [PT-115] , report its measured inhibition at 10 µM. 86

Given the entry CC1=C(C(=O)OCc2ccccc2)C(c2ccccc2OCCN(C)C)n2nnnc2N1 (stereo not drawn) [PT-374] , report its measured inhibition at 10 µM. 66.3

Given the entry CCOC(=O)C1=C(CC)Nc2nnnn2C1c1cccc2ccccc12 (stereo not drawn) [PT-010] , report its measured inhibition at 10 µM. 36.1

Given the entry CC1=C(C(=O)OCc2ccccc2)C(c2c3ccccc3cc3ccccc23)n2nnnc2N1 (stereo not drawn) [PT-039] , report its measured inhibition at 10 µM. 82.1

Given the entry CC1=C(C(=O)OCc2ccccc2)C(c2ccc(N(C)C)c3ccccc23)n2ncc(C(=O)O)c2N1 (stereo not drawn) [PT-311] , report its measured inhibition at 10 µM. -7.5

Given the entry COc1cc(Cl)ccc1COC(=O)C1=C(C)NC2=C(C(=O)CCC2)C1c1c(Cl)cccc1Cl (stereo not drawn) [PT-303] , report its measured inhibition at 10 µM. 59.9

Given the entry CC1=C(C(=O)OCc2ccccc2)C(c2ccccc2-c2ccccc2)C2=C(CCCC2=O)N1 (stereo not drawn) [PT-336] , report its measured inhibition at 10 µM. 60.1

Given the entry COC(=O)c1ccc(C2C(C(=O)OCc3ccccc3)=C(C)Nc3nnnn32)c([N+](=O)[O-])c1 (stereo not drawn) [PT-411] , report its measured inhibition at 10 µM. 11.4

The origin of these recorded values is patent US20090012103A1.
